biological target: human glucocorticoid receptor (Homo sapiens (Human), UniProt P04150); assay: Human glucocorticoid receptor (hGR) ligand-binding assay (3H-dexamethasone competition, IM9 cytosol); conditions: read-out: % inhibition hGR at 1 μM
Sequence (P04150 whole entry): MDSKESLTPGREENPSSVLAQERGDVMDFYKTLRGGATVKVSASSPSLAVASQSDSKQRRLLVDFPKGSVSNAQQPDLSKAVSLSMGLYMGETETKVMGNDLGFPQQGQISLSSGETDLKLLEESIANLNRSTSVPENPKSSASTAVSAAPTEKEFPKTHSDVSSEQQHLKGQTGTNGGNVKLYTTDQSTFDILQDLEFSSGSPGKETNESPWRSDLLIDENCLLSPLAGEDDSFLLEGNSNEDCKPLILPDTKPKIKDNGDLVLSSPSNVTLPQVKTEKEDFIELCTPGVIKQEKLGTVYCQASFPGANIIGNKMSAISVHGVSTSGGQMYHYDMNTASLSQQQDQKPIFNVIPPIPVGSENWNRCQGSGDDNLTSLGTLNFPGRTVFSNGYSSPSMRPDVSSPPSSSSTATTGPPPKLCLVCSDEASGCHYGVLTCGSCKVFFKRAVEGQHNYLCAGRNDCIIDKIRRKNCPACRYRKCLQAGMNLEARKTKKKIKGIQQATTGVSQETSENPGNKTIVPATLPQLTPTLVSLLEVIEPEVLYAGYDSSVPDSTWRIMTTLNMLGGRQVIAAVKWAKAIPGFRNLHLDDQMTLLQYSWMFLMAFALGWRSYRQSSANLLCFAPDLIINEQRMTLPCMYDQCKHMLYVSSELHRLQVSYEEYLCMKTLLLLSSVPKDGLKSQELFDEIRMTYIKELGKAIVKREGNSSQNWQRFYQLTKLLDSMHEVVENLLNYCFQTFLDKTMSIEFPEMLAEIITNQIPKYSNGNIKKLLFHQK
List of inhibition at 1 µM values.
Report only the number, with the unit % understood.

// below: answered molecules
| molecule | reading |
| --- | --- |
| Cc1cc(C(=O)N[C@H]2[C@H](c3ccccc3)N(c3ccc4c(cnn4-c4ccc(=O)n(C)c4)c3)C(=O)C2(C)C)no1 | 18 |
| Cn1cc(-n2ncc3cc(N4C(=O)C5(CC5)[C@H](NC(=O)C5CC5)[C@H]4c4ccccc4)ccc32)ccc1=O (racemic) | 27 |
| Cn1cc(-n2ncc3cc(N4C(=O)C(C)(C)[C@H](NC(=O)c5cncs5)[C@H]4c4ccccc4)ccc32)ccc1=O | 87 |
| Cc1cc(C(=O)N[C@@H]2[C@@H](c3ccccc3)N(c3ccc4c(cnn4-c4ccc(=O)n(C)c4)c3)C(=O)C2(C)C)no1 | 96 |
| CC(F)(F)C(=O)N[C@@H]1[C@@H](c2ccccc2)N(c2ccc3c(cnn3-c3ccc(F)cc3)c2)C(=O)C1(C)C | 100 |

Okay, now this molecule:
For Cc1cnc(C(=O)N[C@@H]2[C@@H](c3ccccc3)N(c3ccc4c(cnn4-c4ccc(=O)n(C)c4)c3)C(=O)C2(C)C)s1 , what is its reported inhibition at 1 µM? 97

The reported measurements were obtained from patent US12358907B2.
